- Tested on: COLO 205
- test-description: NCI tumour cell line growth inhibition, 48 h
Active and inactive are the calls of the source. No stated cut-off is given here; in the data, active = GI50 up to about 1.1 µM and inactive = higher. Residues, ends and D or L forms follow the SMILES beside them. *: point of attachment. Bn = c1ccc(C*)cc1
Response enum: active, inactive

A selection of reference data follows.
COc1cc(OC)cc(C(=O)NC2=C(Cl)C(=O)c3ccccc3C2=O)c1	inactive
COc1ccc2[nH]c(Cl)c(/C=C3/C(=O)N(c4ccccc4)c4ccccc43)c2c1	inactive
CC(O)c1cc2c(s1)C(=O)c1scc(C(C)O)c1C2=O (stereo not given)	inactive
COC(=O)C(CC(C)C)NC(=O)C(N)Cc1ccc(OCc2ccccc2)cc1 (stereo not given) (H-Tyr(Bn)-Leu-OMe; configuration not given here)	inactive
COc1ccc(P2(=S)Oc3ccccc3-c3ccccc3O2)cc1	active
Cc1ccc(NC(=O)/C(Cl)=C(/Cl)C(=O)O)cc1	inactive

Ask: Check the results log: what was the call for `N#Cc1c(SCc2ccccc2)nc(-c2ccccc2)[nH]c1=S` ?
Result: inactive

Ask: Tell me the assay call for `O=C1c2ccccc2N1C(=O)c1ccccc1[N+](=O)[O-]` please.
Result: inactive

Ask: Per the records of this test, what outcome belongs to `c1ccc(/C(=N/Nc2cnccn2)c2ncccn2)cc1` ?
Result: inactive

Ask: Field: outcome | Entry: `N=C1C=C(N)C(=O)c2[nH]c(=O)ccc21`
Result: inactive

Ask: Record lookup: outcome of this test for `Cc1cc(Cl)ccc1OCC(=O)Nc1nc(N)nc(N)n1` ?
Result: inactive

----------
- System: OVCAR-5
- test-description: NCI tumour cell line growth inhibition, 48 h
Calls of active or inactive are those of the source. Cut-off read from the data, not from the text of the source: active = GI50 up to about 1.1 µM and inactive = higher.
Measured GI50 by item

CCCCCCCCCC[C@@H](O)[C@@H]1CC[C@@H]([C@@H]2CC[C@@H]([C@@H](O)CCCCCCCCCC[C@H](O)CC3=CC(C)OC3=O)O2)O1 (stereo not given in full)	9.25 µM (inactive)

Ask: Request the reported GI50 associated with COc1ccc(C(C)NNC(=O)c2ccncc2)cc1OC (stereo not given)
Result: > 100 µM (inactive)

Ask: Return reported GI50; argument: COc1ccc(-c2nc(-c3cnccn3)n(C3OC(CO)C(O)C(O)C3O)n2)cc1 (stereo not given)
Result: > 100 µM (inactive)

Ask: Can you look up the measured GI50 of `Cc1ccc(/C=C/C(=N/NC(=O)N/N=C(/C=C/c2ccc(C)cc2)C(C)C)C(C)C)cc1` for me?
Result: > 10 µM (inactive)

Ask: // returns reported GI50 for input `Cc1cc2c(=O)cc(-c3ccncc3)oc2c(C(=O)O)c1C`
Result: > 100 µM (inactive)

----------
- Test system: LXFL 529
- test-description: NCI tumour cell line growth inhibition, 48 h
Active and inactive are the calls of the source. Rule as the data show it: active = GI50 up to about 1.1 µM and inactive = higher.
As shown below, each of these compounds has a reported GI50 value.

Some compounds with recorded GI50:
N#CC(C#N)=C1NC(=O)CC(=O)N1	> 100 µM (inactive)
O=C(Cc1ccccc1)NN1C(=O)C(Cl)C1c1cccc(O)c1 (configuration not stated)	10.6 µM (inactive)
COc1nc(OC)nc(Sc2ccc(Sc3ccc(Sc4nc(OC)nc(OC)n4)cc3)cc2)n1	> 100 µM (inactive)
OCCNCO	> 100 µM (inactive)
C=C1CC(CCCl)(c2ccccc2)OC1=O (configuration not stated)	20 µM (inactive)
CCCCCCCCCCSS(=O)(=O)c1ccc(C)cc1	13.6 µM (inactive)
Cc1cc2c(=O)cc(-c3ccncc3)oc2c(C(=O)O)c1C	> 100 µM (inactive)
Oc1cccc2c1NC1=C(CCC/C1=C\c1ccccc1)C2	89.5 µM (inactive)
COc1cc(Cc2ccc3c(c2C#N)N(C)c2ccccc2S3)cc(OC)c1OC	6.87 µM (inactive)
CC(=O)/C(=N\O)C(=O)NCc1ccccc1	> 100 µM (inactive)

Ask: For the compound shown here, `CS(=O)(=O)C1(Br)S(=O)(=O)OCCOS1(=O)=O` , give the reported GI50.
Result: > 100 µM (inactive)

Ask: Quick check: GI50 of CC1OC(OCC2COC(O)(Oc3c(-c4ccc(O)c(O)c4)oc4cc(O)cc(O)c4c3=O)C(O)C2O)C(O)C(O)C1O (configuration not stated) ?
Result: > 100 µM (inactive)
